Target: human GGT expressed in Pichia pastoris (Homo sapiens)
Construct: The soluble domain of human GGT (amino acids 28-569) was amplified by PCR; His6 (TEV protease-cleavable) (N, cleaved yes); made in house; host or cells: Pichia pastoris strain X-33 (pPICZαA, plasmid pMW-102), secreted
Sequence (P19440 28-569): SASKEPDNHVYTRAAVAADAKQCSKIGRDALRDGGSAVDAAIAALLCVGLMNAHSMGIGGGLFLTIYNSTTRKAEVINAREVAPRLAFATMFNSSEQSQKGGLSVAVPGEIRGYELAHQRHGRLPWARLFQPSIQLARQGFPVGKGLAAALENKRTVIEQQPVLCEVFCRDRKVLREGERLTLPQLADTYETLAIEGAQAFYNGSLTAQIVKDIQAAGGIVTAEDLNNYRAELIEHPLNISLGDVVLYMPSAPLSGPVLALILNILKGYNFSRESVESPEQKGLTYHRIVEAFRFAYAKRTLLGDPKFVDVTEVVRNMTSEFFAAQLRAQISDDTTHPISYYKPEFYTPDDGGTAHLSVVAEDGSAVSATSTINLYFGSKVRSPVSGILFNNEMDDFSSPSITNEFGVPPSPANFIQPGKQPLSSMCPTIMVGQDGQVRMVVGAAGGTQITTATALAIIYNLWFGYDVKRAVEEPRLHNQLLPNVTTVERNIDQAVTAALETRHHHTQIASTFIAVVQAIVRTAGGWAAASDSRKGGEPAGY
Assay: GGT kinetic assay with purified human GGT expressed in Pichia pastoris
Assay type: biochemical
Conditions: GpNA varied, 40 mM glycylglycine; read-out: appKi obtained varying GpNA
RESULT TYPE: Ki (µM)
// return numeric value only (unit: µM, not printed)

get_value(item= COc1ccc(Cc2nnc(NS(=O)(=O)c3ccccc3)s2)cc1 , readout=Ki) returns 58.2
